molecular target: IDO (Homo sapiens, UniProt P14902); assay: LLE_IDO_ABS_DR (IDO assay)
Sequence (P14902 whole entry): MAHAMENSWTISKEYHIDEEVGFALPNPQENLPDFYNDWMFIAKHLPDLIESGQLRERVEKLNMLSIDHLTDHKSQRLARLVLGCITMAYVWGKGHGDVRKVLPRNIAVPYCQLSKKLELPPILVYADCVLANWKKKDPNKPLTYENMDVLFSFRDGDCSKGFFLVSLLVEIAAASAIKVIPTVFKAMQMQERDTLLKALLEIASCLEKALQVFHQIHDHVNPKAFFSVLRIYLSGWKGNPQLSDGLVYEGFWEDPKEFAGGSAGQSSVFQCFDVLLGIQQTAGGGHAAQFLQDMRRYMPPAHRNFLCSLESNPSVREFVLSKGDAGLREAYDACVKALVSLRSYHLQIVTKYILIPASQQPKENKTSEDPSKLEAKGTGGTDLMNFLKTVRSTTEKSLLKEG
pIC50: −log10 of the molar value.
QUANTITY MEASURED: pIC50

>  <MOLECULE>
Cc1ccc(NC(=O)Nc2cc(-c3ccccc3-c3nnn[nH]3)ccc2N(C)C2CCCCC2)cc1 [Example 44]

>  <TARGET DESC>
IDO (Homo sapiens, UniProt P14902)

>  <MEASURED NUMBER>
8.10

$$$$
>  <MOLECULE>
CC(C)CN(CC(C)C)c1ccc(-c2ccccc2-c2nnn[nH]2)cc1NC(=O)NC1CCCCC1 [Example 140]

>  <TARGET DESC>
IDO (Homo sapiens, UniProt P14902)

>  <MEASURED NUMBER>
5.53

$$$$
>  <MOLECULE>
CC(C)CN(CC(C)C)c1ccc(-c2ccccc2-c2nnn[nH]2)cc1NC(=O)Nc1ccc(C#N)cc1F [Example 260]

>  <TARGET DESC>
IDO (Homo sapiens, UniProt P14902)

>  <MEASURED NUMBER>
8.19

$$$$
>  <MOLECULE>
O=C(Nc1ccc(C2CC2)cc1)Nc1cc(-c2ccccc2-c2nnn[nH]2)ccc1N(CCC(F)(F)F)Cc1ccccn1 [Example 304]

>  <TARGET DESC>
IDO (Homo sapiens, UniProt P14902)

>  <MEASURED NUMBER>
7.15

$$$$
>  <MOLECULE>
Cc1ccc(NC(=O)Nc2cc(-c3ccccc3-c3nnn[nH]3)ccc2N(CCC(F)(F)F)Cc2ccc(Cl)cc2)cc1 [Example 16]

>  <TARGET DESC>
IDO (Homo sapiens, UniProt P14902)

>  <MEASURED NUMBER>
8.00

$$$$
>  <MOLECULE>
Cc1ccc(NC(=O)Nc2cc(-c3ccccc3-c3nnn[nH]3)ccc2N(Cc2ccc(Cl)cc2)C2CCCCC2)cc1 [Example 468]

>  <TARGET DESC>
IDO (Homo sapiens, UniProt P14902)

>  <MEASURED NUMBER>
7.10

$$$$
>  <MOLECULE>
CC(C)CN(CC(C)C)c1ccc(-c2ccccc2-c2nnn[nH]2)cc1NC(=O)Nc1cc(F)cc(Cl)c1 [Example 251]

>  <TARGET DESC>
IDO (Homo sapiens, UniProt P14902)

>  <MEASURED NUMBER>
7.05

$$$$
